Assay: Half life in rat plasma at 1 mg/kg,iv
Assay type: ADME, organism-based
Threshold 40 min: half-life strictly smaller gives 1.0, otherwise 0.0.

These recorded examples may help you get a feel for the data.
item_smiles=Cc1noc2c1-c1ccccc1C(c1ccc(Cl)cc1)=N[C@H]2CC(N)=O category=0.0
item_smiles=Cc1cccc2c1C(c1ccc(Cl)cc1)=N[C@@H](CC(N)=O)c1onc(C)c1-2 category=0.0
item_smiles=COc1ccc2c(c1)C(c1ccc(Cl)cc1)=N[C@@H](CC(N)=O)c1onc(C)c1-2 category=1.0

// switching to the query molecule
Is the reported half-life for `COCCNC(=O)C[C@@H]1N=C(c2ccc(Cl)cc2)c2ccccc2-c2c(C)noc21` strictly below 40 min?
0.0

====

Assay: AUC (0 to infinity) in dog at 2.5 mg/kg,po
Format: ADME, organism-based, Canis lupus familiaris
Set-up: dose 2.5 mg/kg, route po
Settings: in vivo
metric: AUC(0-inf) (µM·h)
Just the number please, in µM·h, no unit attached.

Measured AUC(0-inf) of `Cc1noc2c1-c1ccccc1C(c1ccc(Cl)cc1)=N[C@H]2CC(N)=O` : 28

====

Assay: Protein binding in rat plasma
Assay type: ADME, cell-free
Conditions: read-out: PPB (converted)
metric: fraction unbound
Give the figure only, with no unit attached.

Example cases with answers are listed next.
item_smiles=Cc1ccc(C2=N[C@@H](CC(N)=O)c3onc(C)c3-c3ccccc32)cc1 quantitative_result=0.1
item_smiles=Cc1noc2c1-c1ccccc1C(c1ccc(Cl)cc1)=NC2 quantitative_result=0.01
item_smiles=Cc1noc2c1-c1ccc(-c3cn(C)cn3)cc1C(c1ccc(Cl)cc1)=N[C@H]2CC(N)=O quantitative_result=0.14

Lab note: `COc1ccc(C2=N[C@@H](CC(N)=O)c3onc(C)c3-c3ccccc32)cc1` gave fraction unbound of 0.21

Memo: `Cc1noc2c1-c1ccccc1C(c1ccc(C#N)cc1)=N[C@H]2CC(N)=O` , reported fraction unbound: 0.33

====

Assay: Unbound clearance in rat at 1 mg/kg,iv
Format: ADME, organism-based
Details: in vivo
metric: CL free (mL/min/kg)
A number alone suffices; assume mL/min/kg.

Sample answers from the record:
item_smiles=Cc1noc2c1-c1ccccc1C(c1ccc(C#N)cc1)=N[C@H]2CC(N)=O metric="CL free" quantitative_result=65
item_smiles=Cc1cccc2c1C(c1ccc(Cl)cc1)=N[C@@H](CC(N)=O)c1onc(C)c1-2 metric="CL free" quantitative_result=1050
item_smiles=Cc1noc2c1-c1ccc(-c3ccc(N)nc3)cc1C(c1ccc(Cl)cc1)=N[C@H]2CC(N)=O metric="CL free" quantitative_result=1400
item_smiles=Cc1noc2c1-c1ccccc1C(c1ccc(Cl)cc1)=N[C@H]2CC(N)=O metric="CL free" quantitative_result=283
item_smiles=COc1ccc2c(c1)C(c1ccc(Cl)cc1)=N[C@@H](CC(N)=O)c1onc(C)c1-2 metric="CL free" quantitative_result=617

Now turn to the next compound.
Lab note: measured CL free of `COCCNC(=O)C[C@@H]1N=C(c2ccc(Cl)cc2)c2ccccc2-c2c(C)noc21` was 517

====

Assay: Cmax in mouse at 30 mg/kg,po
Format: ADME, organism-based
Parameters: dose 30 mg/kg, route po
Details: in vivo
metric: Cmax (µM)
Provide the reading as a plain figure in µM.

Cmax for `Cc1noc2c1-c1ccccc1C(c1ccc(Cl)cc1)=N[C@H]2CC(N)=O` is 24

====

Target: ATPase family AAA domain-containing protein 2 (Homo sapiens, UniProt Q6PL18)
Sequence (Q6PL18 whole entry, the tested form may be a part): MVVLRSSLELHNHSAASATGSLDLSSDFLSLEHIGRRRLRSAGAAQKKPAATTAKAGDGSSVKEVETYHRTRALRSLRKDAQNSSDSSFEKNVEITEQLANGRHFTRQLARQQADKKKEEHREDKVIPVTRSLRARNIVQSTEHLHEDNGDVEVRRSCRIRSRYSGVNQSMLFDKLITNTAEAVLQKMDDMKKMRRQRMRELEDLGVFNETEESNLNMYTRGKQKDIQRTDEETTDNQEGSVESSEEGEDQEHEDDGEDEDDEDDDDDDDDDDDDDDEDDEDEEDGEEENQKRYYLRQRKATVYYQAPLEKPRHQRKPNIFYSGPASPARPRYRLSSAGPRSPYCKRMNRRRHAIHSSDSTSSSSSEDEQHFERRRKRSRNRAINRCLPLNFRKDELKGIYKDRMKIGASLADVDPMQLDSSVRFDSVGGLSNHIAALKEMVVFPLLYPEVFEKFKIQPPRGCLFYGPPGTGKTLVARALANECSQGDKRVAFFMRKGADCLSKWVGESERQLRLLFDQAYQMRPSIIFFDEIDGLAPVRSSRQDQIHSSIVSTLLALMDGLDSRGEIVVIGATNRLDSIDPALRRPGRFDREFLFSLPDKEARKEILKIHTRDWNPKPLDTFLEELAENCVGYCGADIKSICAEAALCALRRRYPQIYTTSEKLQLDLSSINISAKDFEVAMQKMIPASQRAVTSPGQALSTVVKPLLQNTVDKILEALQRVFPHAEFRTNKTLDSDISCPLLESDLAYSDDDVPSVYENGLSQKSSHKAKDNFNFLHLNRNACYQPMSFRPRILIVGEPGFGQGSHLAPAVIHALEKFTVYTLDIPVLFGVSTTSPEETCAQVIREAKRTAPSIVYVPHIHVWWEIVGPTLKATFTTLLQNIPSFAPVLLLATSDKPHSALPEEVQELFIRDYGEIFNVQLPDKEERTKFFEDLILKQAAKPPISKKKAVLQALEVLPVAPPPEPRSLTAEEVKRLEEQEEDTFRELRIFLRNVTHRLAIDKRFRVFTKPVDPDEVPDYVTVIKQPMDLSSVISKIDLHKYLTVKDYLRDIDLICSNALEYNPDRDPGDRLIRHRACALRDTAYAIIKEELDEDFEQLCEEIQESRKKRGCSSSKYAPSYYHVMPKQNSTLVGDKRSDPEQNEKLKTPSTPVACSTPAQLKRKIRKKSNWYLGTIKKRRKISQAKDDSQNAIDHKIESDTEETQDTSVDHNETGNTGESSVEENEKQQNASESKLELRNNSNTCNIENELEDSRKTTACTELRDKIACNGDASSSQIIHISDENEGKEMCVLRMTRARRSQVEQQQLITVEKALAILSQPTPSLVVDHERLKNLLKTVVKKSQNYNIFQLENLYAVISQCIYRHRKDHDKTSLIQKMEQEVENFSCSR
Experiment: Binding affinity to ATAD2 bromodomain (unknown origin) incubated for 60 mins by TR-FRET assay
metric: IC50

So for `Cc1noc2c1-c1ccccc1C(c1ccc(Cl)cc1)=N[C@H]2CC(N)=O` , the logged IC50 turned out to be > 80 µM

====

Molecular target: Peregrin (Homo sapiens)
Sequence (P55201 whole entry): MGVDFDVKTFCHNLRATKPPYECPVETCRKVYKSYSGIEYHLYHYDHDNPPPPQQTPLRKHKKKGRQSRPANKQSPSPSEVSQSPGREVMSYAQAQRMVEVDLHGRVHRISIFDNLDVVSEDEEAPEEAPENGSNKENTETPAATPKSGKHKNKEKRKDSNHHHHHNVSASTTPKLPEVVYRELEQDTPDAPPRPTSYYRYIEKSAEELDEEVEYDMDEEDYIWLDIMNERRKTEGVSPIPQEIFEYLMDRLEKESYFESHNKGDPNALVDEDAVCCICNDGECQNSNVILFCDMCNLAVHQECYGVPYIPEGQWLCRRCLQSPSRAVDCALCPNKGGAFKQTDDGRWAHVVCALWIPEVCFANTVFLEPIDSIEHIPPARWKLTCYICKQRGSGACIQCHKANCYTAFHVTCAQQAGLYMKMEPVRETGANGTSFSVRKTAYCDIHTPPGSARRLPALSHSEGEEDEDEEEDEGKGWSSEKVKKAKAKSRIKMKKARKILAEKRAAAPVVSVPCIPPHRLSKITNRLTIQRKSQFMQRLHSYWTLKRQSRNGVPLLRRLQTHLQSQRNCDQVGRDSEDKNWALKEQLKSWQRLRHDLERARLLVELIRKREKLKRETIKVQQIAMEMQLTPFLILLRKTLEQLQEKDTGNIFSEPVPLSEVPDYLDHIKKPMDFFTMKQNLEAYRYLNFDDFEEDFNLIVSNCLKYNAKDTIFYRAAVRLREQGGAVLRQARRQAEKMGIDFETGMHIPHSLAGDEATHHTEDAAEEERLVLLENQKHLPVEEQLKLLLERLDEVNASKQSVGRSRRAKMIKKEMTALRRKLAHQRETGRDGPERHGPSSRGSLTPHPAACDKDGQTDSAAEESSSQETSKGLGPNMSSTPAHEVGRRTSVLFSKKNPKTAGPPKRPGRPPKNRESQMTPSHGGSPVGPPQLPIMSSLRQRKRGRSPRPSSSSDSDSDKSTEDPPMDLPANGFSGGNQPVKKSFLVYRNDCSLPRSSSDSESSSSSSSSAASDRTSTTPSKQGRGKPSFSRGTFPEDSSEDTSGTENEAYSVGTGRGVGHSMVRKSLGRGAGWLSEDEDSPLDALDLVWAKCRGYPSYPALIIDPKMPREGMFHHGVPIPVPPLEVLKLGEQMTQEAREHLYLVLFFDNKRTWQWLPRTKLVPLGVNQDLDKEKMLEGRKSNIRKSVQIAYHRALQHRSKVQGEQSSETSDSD
Assay: Displacement of biotinylated JQ1 from BRPF1 bromodomain (unknown origin) incubated for 20 mins by AlphaLISA assay
metric: IC50

The reported IC50 of the molecule Cc1noc2c1-c1ccccc1C(c1ccc(Cl)cc1)=N[C@H]2CC(N)=O [PELABRESIB] was > 20 µM

====

Experiment: Intrinsic clearance in rat liver microsomes
Format: ADME, Microsome
metric: predicted hepatic clearance (CLH)

compound=Cc1ccc(C2=N[C@@H](CC(N)=O)c3onc(C)c3-c3ccccc32)cc1 result="49 mL/min/kg"
compound=Cc1noc2c1-c1ccc(-c3cn(C)cn3)cc1C(c1ccc(Cl)cc1)=N[C@H]2CC(N)=O result="< 10 mL/min/kg"
compound="Cc1noc2c1-c1ccccc1C(c1ccc(Cl)cc1)=N[C@H]2CC(N)C(F)(F)F (stereo not given in full)" result="38 mL/min/kg"

// sample `CCNC(=O)C[C@@H]1N=C(c2ccc(Cl)cc2)c2ccccc2-c2c(C)noc21` , its predicted hepatic clearance (CLH) was 42 mL/min/kg

Note to self: predicted hepatic clearance (CLH) recorded for `COCCNC(=O)C[C@@H]1N=C(c2ccc(Cl)cc2)c2ccccc2-c2c(C)noc21` was 45 mL/min/kg

Entry under test: Cc1noc2c1-c1ccccc1C(c1ccc(Cl)cc1)=NC2C(N)=O (stereo not given) . Its predicted hepatic clearance (CLH) was 27 mL/min/kg

# predicted hepatic clearance (CLH) (compound: Cc1noc2c1-c1ccccc1C(c1ccc(Cl)cc1)=N[C@H]2CC(N)=O [PELABRESIB] ) is 21 mL/min/kg

Value of predicted hepatic clearance (CLH) reported for the compound `Cc1noc2c1-c1ccccc1C(c1ccccc1)=N[C@H]2CC(N)=O` is 28 mL/min/kg

predicted hepatic clearance (CLH) in this record for `Cc1noc2c1-c1ccccc1C(c1ccc(C#N)cc1)=N[C@H]2CC(N)=O` : 16 mL/min/kg

predicted hepatic clearance (CLH) in this record for `Cc1noc2c1-c1ccccc1C(c1ccc(Cl)cc1)=NC2` : 40 mL/min/kg

====

Assay: AUC (0 to infinity) in rat at 10 mg/kg,po
Assay type: ADME, organism-based
Parameters: dose 10 mg/kg, route po
Settings: in vivo
metric: AUC(0-inf) (µM·h)
Just the number please, in µM·h, no unit attached.

item_smiles=COc1ccc2c(c1)C(c1ccc(Cl)cc1)=N[C@@H](CC(N)=O)c1onc(C)c1-2 quantitative_result=8.5

For reference, reported AUC(0-inf) for `COCCNC(=O)C[C@@H]1N=C(c2ccc(Cl)cc2)c2ccccc2-c2c(C)noc21` stands at 1.2

====

Assay: Cmax in rat at 5 mg/kg,po
Assay type: ADME, organism-based
Parameters: dose 5 mg/kg, route po
Settings: in vivo
Entries and their Cmax values follow.
# value in nM; strip the unit string

Sample records with Cmax:
item_smiles=Cc1cccc2c1C(c1ccc(Cl)cc1)=N[C@@H](CC(N)=O)c1onc(C)c1-2 quantitative_result=1200
item_smiles=Cc1noc2c1-c1ccccc1C(c1ccc(C#N)cc1)=N[C@H]2CC(N)=O quantitative_result=1800

--- query ---
Value of Cmax reported for the molecule `Cc1noc2c1-c1ccccc1C(c1ccc(Cl)cc1)=N[C@H]2CC(N)=O` is 1800
